tested on: HCT116; test: efficacy (maximum % inhibition of viability vs DMSO); higher = more cytotoxic; settings: 72 h; ICRF193 0 nM
Where a name gives a salt, the structure may show the parent alone.
Give efficacy for every item shown.
Response body: numeric value in %, unit text excluded.

## Task Which measured efficacy value corresponds to COc1c(-c2ccc3cc(NS(C)(=O)=O)ccc3c2)cc(-n2ccc(=O)[nH]c2=O)cc1C(C)(C)C [ABT-333] ?
## Result 94.6

## Task Quick one: Oc1c(I)cc(Cl)c2cccnc12 [Clioquinol]
## Result 99.1

## Task Quick one: COCc1c(C(C)C)nc(C(C)C)c(/C=C/[C@@H](O)C[C@@H](O)CC(=O)O)c1-c1ccc(F)cc1 [Cerivastatin sodium]
## Result 106

## Task Quick one: CC(C)(C)c1ccc(CN2CCN(C(c3ccccc3)c3ccc(Cl)cc3)CC2)cc1 (configuration not stated) [Buclizine HCl]
## Result 42.9

## Task Quick one: N[C@@H]1[C@H]2CN(c3nc4c(cc3F)c(=O)c(C(=O)O)cn4-c3ccc(F)cc3F)C[C@@H]12 [Trovafloxacin mesylate]
## Result 52.4

## Task Quick one: COc1ccc(-n2nc(CCC(=O)N(C)O)cc2-c2ccc(Cl)cc2)cc1 [Tepoxalin]
## Result 93.4

## Task Quick one: C[C@]12CCC(=O)C=C1[C@@H]1C[C@@H]1[C@H]1[C@@H]3[C@@H]4C[C@@H]4[C@@]4(CCC(=O)O4)[C@@]3(C)CC[C@@H]12 [Drospirenone]
## Result 51.3
